Test system: UACC-257 melanoma
Assay: NCI-60 one-dose screen, 48 h (100 = growth as untreated, 0 = no growth, -100 = all killed)
Settings: 10 µM unless noted
Compounds without any hit were thinned out: in the full panel of roughly 83,000, 20% have a hit.
# note: boundary value 70% maps to N; growth below it maps to Y

Example entries begin here.
molecule: CC/C=C\C[C@H](O)C/C=C1/C(=O)C=C[C@@H]1C/C=C\CCCC(=O)OC(C)C
category label: Y

molecule: CCCCCC(=O)N(CCCC)CCCC
category label: N

molecule: COc1cc(C#N)cc(OC)c1OCCN(CCOc1c(OC)cc(C#N)cc1OC)S(=O)(=O)c1ccc(C)cc1
category label: N

molecule: O=C(/C=C/c1ccc(B(O)O)cc1)/C=C/c1ccc(B(O)O)cc1
category label: Y

molecule: CC[C@@H](C)OC(=O)c1nn(C(C)=O)c2ccccc12
category label: N

molecule: N#Cc1ccc(NC(=O)Nc2ccc(Cc3ccc(NC(=O)Nc4ccc(C#N)cc4)cc3)cc2)cc1
category label: Y

molecule: O=C1OC2C(I)C3CC2C1C3c1ccccc1 (stereo not given)
category label: N

molecule: O=C(Nc1ccc(Nc2cc(Nc3ccccc3)ncn2)cc1)Nc1cc(C(F)(F)F)ccc1F
category label: N

Does the reported growth of the following molecule sit strictly below 70%? "Cc1csc2ccc(Cl)cc12"
N

* * *

Test system: LOX IMVI melanoma
Experiment: NCI-60 one-dose screen, 48 h (100 = growth as untreated, 0 = no growth, -100 = all killed)
Conditions: 10 µM unless noted
Experimental: Growth inhibition of the LOX IMVI human tumor cell line is measured as a screen for anti-cancer activity. Cells are grown in 96 well plates and exposed to the test compound for 48 hours. Compounds are tested at a single concentration, which is 10^-5 M for most compounds. The reported endpoint is percent growth (GI% or GIPRCNT), where numbers from 0 - 100% represent growth inhibition, and numbers from -100% - 0 represent cell death. For example, a value of 40 represents 60% growth inhibition. […]
Compounds without any hit were thinned out: in the full panel of roughly 83,000, 20% have a hit.
Recorded growth determines the group label, using lower range: < 20%; middle range: ≥ 20% and < 90%; upper range: ≥ 90%

Hi there! Could you help me figure out the category for "C#Cc1nc2ccccc2c(=O)[nH]1" please?
lower range

Class? Entry: "CSc1nc(NCCCNc2ccnc3cc(Cl)ccc23)cc(-c2ccccc2)n1"
middle range

Textbook exercise: identify the category of the compound given here, "Nc1c(C(=O)Nc2cccc3c2OCCO3)sc2nc3c(cc12)C(=O)CCC3" , according to its measured value.
middle range

Note: place this compound into its band. Item: "COc1ccc(-c2nn(-c3ccccc3)cc2/C=C2\SC(=O)NC2=O)cc1"
middle range

// bin(item) where item = "CCOC(=O)c1cnc2ccc(Br)cc2c1Nc1cccc(S(=O)(=O)NC)c1"
upper range

Determine which band this compound sits in: "COc1ccc(C/C(C)=C(\c2ccc(OCCN3CCCCCC3)cc2)c2ccc(OC(=O)C3CCCCC3)cc2)cc1"
middle range

Textbook exercise: identify the category of the compound given here, "CNCc1cccc2c1OCCOCCOCCN(C)S(=O)(=O)c1ccc(cc1)-c1cnc(N)c(n1)C(=O)N2" , according to its measured value.
lower range

Exercise: read the entry "CC/C(Cc1ccccc1)=C(/c1ccc(O)cc1)c1ccc(OCCN2CCCC2)cc1" and state which class it falls under.
lower range

Determine which band this compound sits in: "Nc1c(C(=O)Nc2ccccc2Cl)sc2nc3c(cc12)CCCCCC3"
middle range

Which growth band matches "O=C(CN1CCN(c2cc3c(cc2F)c(=O)c(C(=O)O)cn3C2CC2)CC1)Nc1cc(=O)[nH]c(=O)[nH]1" ?
upper range

Band for "CCN(CC)c1ccc(/C=C/C2=[N+](C)c3ccccc3C2(C)C)cc1" ?
lower range

Band assignment needed for O=C1Nc2ccccc2C12CC(c1ccccc1)=NN2 (configuration not stated) please.
middle range

Class label required: "CC[C@H](Nc1nc(N)nc(C)c1C#N)c1nc2cccc(NCc3ccc(C(=O)NO)cc3)c2c(=O)n1-c1ccccc1"
lower range

Each compound maps to one class by growth. Which class for CN(C)c1ccc(C2Nc3ccccc3-n3cccc32)cc1 (configuration not stated) ?
upper range

Data origin: PubChem BioAssay (NCI)
